# CREATINE PHOSPHOKINASE values compiled below
# Species on record: Rattus norvegicus
# Assay name: DrugMatrix - Regimen: Daily Repeat
# Format: toxicity, organism-based, Sprague-Dawley
# Design: regimen Daily Repeat, gender Male, age 6-8 weeks
# Conditions: in vivo, po, 0 mg/kg, 120 h, tissue Plasma, route oral GAVAGE, dose level Control, time 5 day, vehicle .5 % CMC
# value in u/L; strip the unit string

>>> df
                                   compound  recorded_value
0  CC1CC(OC(=O)C(O)c2ccccc2)CC(C)(C)C1 (configuration not stated) [CYCLANDELATE]             130
1  Cc1ccc(/N=C/N(C)/C=N/c2ccc(C)cc2C)c(C)c1           273.5
2  C1CCC(C(CC2CCCCN2)C2CCCCC2)CC1 (configuration not stated)          184.67

Now take the following compound into account.
Lookup: Given CCCN1C[C@H](CSC)C[C@@H]2c3cccc4[nH]cc(c34)C[C@H]21 [PERGOLIDE] , state its recorded CREATINE PHOSPHOKINASE.
Found: 284.5

* * *

# Species: Rattus norvegicus
# Assay name: DrugMatrix - Regimen: Daily Repeat
# Assay type: toxicity, organism-based, Sprague-Dawley
# Parameters: regimen Daily Repeat, gender Male, age 6-8 weeks
# Conditions: in vivo, po, 0 mg/kg, 120 h, tissue Blood, route oral GAVAGE, dose level Control, time 5 day, vehicle 100 % WATER
Attribute measured: PLATELET COUNT (x10E3/uL)
Could you give me the number in x10E3/uL? Just the number is fine.

                                   compound  attribute_measured  measure_unit  recorded_value
0          C[C@H](CS)C(=O)N1CCC[C@H]1C(=O)O      PLATELET COUNT      x10E3/uL         1285.33
1  C[C@H]1c2cccc(O)c2C(=O)C2=C(O)[C@]3(O)C(=O)C(C(N)=O)=C(O)[C@@H](N(C)C)[C@@H]3[C@@H](O)[C@@H]21.O      PLATELET COUNT      x10E3/uL         1186.67
2               CC(O)CO (centres undefined)      PLATELET COUNT      x10E3/uL          1280.5

Lookup: Please report the recorded PLATELET COUNT for C[C@](N)(Cc1ccc(O)c(O)c1)C(=O)O .
Found: 1270.67

Lookup: Looking for the measured PLATELET COUNT of c1ccc([C@H]2CN3CCSC3=N2)cc1 , can you help?
Found: 1198

Lookup: Which PLATELET COUNT value belongs to NCCCCCC(=O)O ?
Found: 1280.5

Lookup: Could you tell me which PLATELET COUNT is on file for N[C@@H](Cc1ccc(O)c(O)c1)C(=O)O ?
Found: 1186.67

Lookup: For the compound shown here, C=CCC1(C(C)CCC)C(=O)NC(=O)NC1=O (centres undefined) , give the reported PLATELET COUNT.
Found: 1144.83

Lookup: Please give the measured PLATELET COUNT for this compound: Clc1cccc(Cl)c1N=C1NCCN1
Found: 1325.67

* * *

Each entry below carries its recorded LYMPHOCYTE.
# Organism: Rattus norvegicus
# Assay name: DrugMatrix - Regimen: Daily Repeat
# Format: toxicity, organism-based, Sprague-Dawley
# Parameters: regimen Daily Repeat, gender Male, age 6-8 weeks
# Conditions: in vivo, iv, 0 mg/kg, 120 h, tissue Blood, dose level Control, time 5 day, vehicle 100 % SALINE
Starred links: 1 amine or outer side, 2 acyl side, 3 side chain; linkers in the order of their positions; H or OH if unused. Positions of bridges follow the written chain, without caps; N, C: chain ends. Non-standard residues stand in square brackets, D forms with d. Residues, ends and D or L forms follow the SMILES beside them. Chains are numbered I, II in the order given. Actinocin(9to1) = Cc1c2oc3c(C)ccc(C(=O)[*:1])c3nc-2c(C(=O)[*:2])c(N)c1=O; NMeV = CN[C@H](C(=O)O)C(C)C; Sar = CNCC(=O)O
The answer is to be given in %; state only the numeric part.

Compound	Recorded value
Cc1ccc(N(CC2=NCCN2)c2cccc(O)c2)cc1	91.17
Cc1c2oc3c(C)ccc(C(=O)N[C@@H]4C(=O)N[C@H](C(C)C)C(=O)N5CCC[C@H]5C(=O)N(C)CC(=O)N(C)[C@@H](C(C)C)C(=O)O[C@@H]4C)c3nc-2c(C(=O)N[C@@H]2C(=O)N[C@H](C(C)C)C(=O)N3CCC[C@H]3C(=O)N(C)CC(=O)N(C)[C@@H](C(C)C)C(=O)O[C@@H]2C)c(N)c1=O [DACTINOMYCIN] (I: T[dV]P[Sar][NMeV] / II: T[dV]P[Sar][NMeV]; ester I:1-I:C, II:1-II:C; linker I:N-II:N via Actinocin(9to1))	87.67
COc1cc2c3cc1Oc1cc(ccc1O)C[C@@H]1c4c(cc(OC)c(O)c4Oc4ccc(cc4)C[C@@H]3N(C)CC2)CC[N+]1(C)C.[Cl-]	90.5

Lookup: May I ask what LYMPHOCYTE has been recorded for CC[C@]1(O)C[C@H]2CN(CCc3c([nH]c4ccccc34)[C@@](C(=O)OC)(c3cc4c(cc3OC)N(C=O)[C@H]3[C@@](O)(C(=O)OC)[C@H](OC(C)=O)[C@]5(CC)C=CCN6CC[C@]43[C@@H]65)C2)C1 ?
Found: 90.17

Entry source: ChEMBL document CHEMBL3885881
